Tested on: upland rice (Oryza sp., var. Tebonnet, RICE)
EXPERIMENT_NOTES: Pre-emerge test, crop safety
Assay type: in vivo
CONDITIONS: 250 g ai/ha; rating scale 0-100, 14 days after application
The entries below are paired with their reported Pre-emerge phytotoxicity rating, crop damage RICE.
Note: the reply should be a number with no unit written.

Example results:
C#CCOC(=O)C(C)(Cl)Cc1c(OC)c(Cl)cc(F)c1-n1c(=O)cc(C(F)(F)F)n(C)c1=O (stereo not drawn) = 50
CCOC(=O)C(Br)Cc1c(OC)c(Cl)cc(F)c1-n1c(=O)cc(C(F)(F)F)n(C)c1=O (single isomer, unassigned) [14-32] = 10
COc1c(Cl)cc(F)c(N2C(=O)C3CCCCN3C2=S)c1NC(=O)c1ccc2ccccc2c1 (stereo not drawn) = 10
CCCOC(=O)C(Cl)Cc1c(OC)c(Cl)cc(F)c1-n1c(=O)cc(C(F)(F)F)n(C)c1=O (single isomer, unassigned) [14-6] = 50
COc1c(Cl)cc(F)c(-n2c(=O)cc(C(F)(F)F)n(C)c2=O)c1CC(C)(Cl)C(=O)OCc1ccccc1 (stereo not drawn) = 50

Query compound follows.
# input What value of Pre-emerge phytotoxicity rating, crop damage RICE has been reported for the following compound? COC(=O)C(Cl)Cc1c(OC)c(Cl)cc(F)c1-n1c(=O)cc(C(F)(F)F)n(C)c1=O (stereo not drawn)
# output 50

----------
System: lambsquarters (Chenopodium album, CHEAL)
EXPERIMENT_NOTES: Post-emerge test, greenhouse herbicide activity screening
Assay type: in vivo
CONDITIONS: 63 g ai/ha; phytotoxicity rating 0-100 (0 no damage, 100 complete death), 14 days after application
Threshold check on Post-emerge Herbicidal Activity CHEAL: at or above 40 gives 1, strictly below gives 0.

Cc1c(Cl)cc(F)c(-n2c(=O)cc(C(F)(F)F)n(C)c2=O)c1N = 1

# input Evaluate "Cn1c(C(F)(F)F)cc(=O)n(-c2c(F)cc(Cl)c(OCC#N)c2N)c1=O" : Post-emerge Herbicidal Activity CHEAL at minimum 40?
# output 1

# input Check the entry "COc1c(Cl)cc(F)c(-n2c(=O)c(N)c(C(F)(F)F)n(C)c2=O)c1N" : does Post-emerge Herbicidal Activity CHEAL equal or exceed 40?
# output 0

# input // inclusive: Post-emerge Herbicidal Activity CHEAL at least 40? input: "CCc1ccc(C(=O)Nc2c(OCC#N)c(Cl)cc(F)c2-n2c(=O)cc(C(F)(F)F)n(C)c2=O)cc1"
# output 1

----------
Measured Pre-emerge herbicidal activity, phytotoxicity rating CASOB accompanies every entry in the list below.
Test system: sicklepod (Cassia obtusifolia, CASOB)
EXPERIMENT_NOTES: Pre-emerge test, greenhouse herbicide activity screening
Type: in vivo
CONDITIONS: 250 g ai/ha; rating scale 0-100, 14 days after application
Reply with the value as a number alone.

CCCCOC(=O)C(Cl)Cc1c(OC)c(Cl)cc(F)c1-n1c(=O)cc(C(F)(F)F)n(C)c1=O (single isomer, unassigned) [14-8] = 0
COc1c(Cl)cc(F)c(-n2c(=O)cc(C(F)(F)F)n(C)c2=O)c1CC(Cl)C(=O)OCC(C)C (single isomer, unassigned) [14-15] = 40
CCCCCOC(=O)C(C)(Cl)Cc1c(OC)c(Cl)cc(F)c1-n1c(=O)cc(C(F)(F)F)n(C)c1=O (centres unmarked) [14-37] = 0
COc1c(Cl)cc(F)c(N2C(=O)C3CCCCN3C2=S)c1NC(=O)c1ccc2ccccc2c1 (centres unmarked) [12-5] = 80
COc1c(Cl)cc(F)c(-n2c(=O)cc(C(F)(F)F)n(C)c2=O)c1CC(C)(Cl)C(=O)OCc1ccccc1 (centres unmarked) [14-41] = 0
CCCCCOC(=O)C(Cl)Cc1c(OC)c(Cl)cc(F)c1-n1c(=O)cc(C(F)(F)F)n(C)c1=O (single isomer, unassigned) [14-10] = 0

# input For CCOC(=O)C(Cl)Cc1c(OC)c(Cl)cc(F)c1-n1c(=O)cc(C(F)(F)F)n(C)c1=O (single isomer, unassigned) [Compound 14-5] , what is its reported Pre-emerge herbicidal activity, phytotoxicity rating CASOB?
# output 10

# input Requested read-out: Pre-emerge herbicidal activity, phytotoxicity rating CASOB. Entry: CCCCCCOC(=O)C(C)(Cl)Cc1c(OC)c(Cl)cc(F)c1-n1c(=O)cc(C(F)(F)F)n(C)c1=O (centres unmarked) [14-38]
# output 0

# input Query (molecule): CCCCOC(=O)C(C)(Cl)Cc1c(OC)c(Cl)cc(F)c1-n1c(=O)cc(C(F)(F)F)n(C)c1=O (centres unmarked) [14-36] ; field requested: Pre-emerge herbicidal activity, phytotoxicity rating CASOB
# output 0

----------
System: johnsongrass (Sorghum halepense, SORHA)
EXPERIMENT_NOTES: Pre-emerge test, greenhouse herbicide activity screening
Assay type: in vivo
CONDITIONS: 250 g ai/ha; rating scale 0-100, 14 days after application
Protocol: A standard greenhouse herbicide activity screening system was used to evaluate the herbicidal efficacy and crop safety of these test compounds. […] At 14 days after application of the test materials, phytotoxicity ratings were recorded. […]
VALUE_TYPE: Pre-emerge herbicidal activity, phytotoxicity rating SORHA

Examples with their reported Pre-emerge herbicidal activity, phytotoxicity rating SORHA follow.
CCCCCOC(=O)C(Cl)Cc1c(OC)c(Cl)cc(F)c1-n1c(=O)cc(C(F)(F)F)n(C)c1=O (single isomer, unassigned) [14-10] = 30
COc1c(Cl)cc(F)c(-n2c(=O)cc(C(F)(F)F)n(C)c2=O)c1CC(Cl)C(=O)OCC(F)(F)C(F)F (centres unmarked) = 0

# input What value of Pre-emerge herbicidal activity, phytotoxicity rating SORHA has been recorded for this entry: CCCCCCOC(=O)C(Cl)Cc1c(OC)c(Cl)cc(F)c1-n1c(=O)cc(C(F)(F)F)n(C)c1=O (single isomer, unassigned)
# output 0

# input Returns the measured Pre-emerge herbicidal activity, phytotoxicity rating SORHA for the input compound. Input: COc1c(Cl)cc(F)c(-n2c(=O)cc(C(F)(F)F)n(C)c2=O)c1CC(Cl)C(=O)OCC(C)C (single isomer, unassigned) [14-15]
# output 0

# input Look at this compound and give its reported Pre-emerge herbicidal activity, phytotoxicity rating SORHA. C#CCOC(=O)C(C)(Cl)Cc1c(OC)c(Cl)cc(F)c1-n1c(=O)cc(C(F)(F)F)n(C)c1=O (centres unmarked)
# output 0

----------
System: large crabgrass (Digitaria sanguinalis, DIGSA)
EXPERIMENT_NOTES: Post-emerge test, greenhouse herbicide activity screening
Assay type: in vivo
CONDITIONS: 63 g ai/ha; phytotoxicity rating 0-100 (0 no damage, 100 complete death), 14 days after application
Below: a set of entries, each annotated with reported Post-emerge Herbicidal Activity DIGSA.
API doc: respond with a numeric literal and nothing else, no unit.

These recorded examples may help you get a feel for the data.
COc1c(Cl)cc(F)c(-n2c(=O)cc(C(F)(F)F)n(C)c2=O)c1NC(=O)c1ccc(C)c(C)c1 = 0
Cn1c(C(F)(F)F)cc(=O)n(-c2c(F)cc(Cl)c(OCC#N)c2N)c1=O = 50
COc1c(Cl)cc(F)c(-n2c(=O)cc(C(F)(F)F)n(C)c2=O)c1NC(=O)c1cccc(C)c1 = 0
COc1c(Cl)cc(F)c(-n2c(=O)c(NC(=O)C(F)(F)F)c(C(F)(F)F)n(C)c2=O)c1NC(=O)C(F)(F)F = 0
CCOC(=O)C(C)Nc1cc(Cl)cc(F)c1-n1c(=O)cc(C(F)(F)F)n(C)c1=O (stereo not shown) = 40
COc1c(Cl)cc(F)c(-n2c(=O)cc(C(F)(F)F)n(C)c2=O)c1N(C)C = 0

# input Recorded Post-emerge Herbicidal Activity DIGSA of "COc1c(Cl)cc(F)c(-n2c(=O)cc(C(F)(F)F)n(C)c2=O)c1NC(=O)c1ccc(C)cc1" , please.
# output 10

----------
Tested on: field corn (Zea mays L., var. Dekalb 535, CORN)
EXPERIMENT_NOTES: Post-emerge test, crop safety
Format: in vivo
CONDITIONS: post-emerge, 250 g ai/ha, 14 days after application, rating scale 0-100
Description: A standard greenhouse herbicide activity screening system was used to evaluate the herbicidal efficacy and crop safety of these test compounds. […] At 14 days after application of the test materials, phytotoxicity ratings were recorded. […]
Answer label 0 if phytotoxicity rating CORN is under 10, and label 1 if it is 10 or more.

// below: answered compounds
COc1c(Cl)cc(F)c(-n2c(=O)cc(C(F)(F)F)n(C)c2=O)c1NC(=O)CCc1ccccc1 = label 1
COc1c(Cl)cc(F)c(-n2c(=O)cc(C(F)(F)F)n(C)c2=O)c1N(C(=O)c1ccc([N+](=O)[O-])cc1)C(=O)c1ccc([N+](=O)[O-])cc1 = label 0
COc1c(Cl)cc(F)c(-n2c(=O)cc(C(F)(F)F)n(C)c2=O)c1NC(=O)c1ccc(Cl)cc1 = label 1
COc1c(Cl)cc(F)c(-n2c(=O)cc(C(F)(F)F)n(C)c2=O)c1N(C(=O)c1ccc(C(F)(F)F)cc1)C(=O)c1ccc(C(F)(F)F)cc1 = label 1
COc1c(Cl)cc(F)c(-n2c(=O)cc(C(F)(F)F)n(C)c2=O)c1NC(=O)c1ccc(I)cc1 = label 1
COc1ccc(C(=O)Nc2c(OC)c(Cl)cc(F)c2-n2c(=O)cc(C(F)(F)F)n(C)c2=O)cc1 = label 1
Cn1c(C(F)(F)F)cc(=O)n(-c2c(F)cc(Cl)c(O)c2NC(=O)c2ncccn2)c1=O = label 0
COc1c(Cl)cc(F)c(-n2c(=O)cc(C(F)(F)F)n(C)c2=O)c1NC(=O)C=Cc1ccccc1 = label 1
COc1c(Cl)cc(F)c(-n2c(=O)cc(C(F)(F)F)n(C)c2=O)c1NC(=O)C(=O)c1ccccc1 = label 1
COc1c(Cl)cc(F)c(-n2c(=O)cc(C(F)(F)F)n(C)c2=O)c1NC(=O)COCc1ccccc1 = label 0

# input Evaluate "COc1c(Cl)cc(F)c(-n2c(=O)cc(C(F)(F)F)n(C)c2=O)c1NC(=O)c1cc(F)cc(F)c1" : phytotoxicity rating CORN at minimum 10?
# output label 1

# input Test whether the compound "COc1c(Cl)cc(F)c(-n2c(=O)cc(C(F)(F)F)n(C)c2=O)c1NC(=O)c1ccc(F)cc1" records phytotoxicity rating CORN of 10 or higher.
# output label 1
